ASSAY_PROCEDURE: Volume of distribution at steady state in Gottigen pig by LC/MS/MS analysis
Format: ADME, Sus scrofa
ASSAY_CONDITIONS: in vivo, read-out: Vdss

| GIVEN_SMILES | UNITS_LABEL | Vd |
| --- | --- | --- |
| CCC(=O)CCCCC[C@H](NC(=O)C1CN(C)C1)c1ncc(-c2cc3ccccc3nc2OC)o1 | L/kg | 0.64 |

* * *

Each entry below carries its recorded pIC50.
STUDY_TARGET: Histone deacetylase 1 (Homo sapiens, UniProt Q13547)
Sequence (Q13547 whole entry): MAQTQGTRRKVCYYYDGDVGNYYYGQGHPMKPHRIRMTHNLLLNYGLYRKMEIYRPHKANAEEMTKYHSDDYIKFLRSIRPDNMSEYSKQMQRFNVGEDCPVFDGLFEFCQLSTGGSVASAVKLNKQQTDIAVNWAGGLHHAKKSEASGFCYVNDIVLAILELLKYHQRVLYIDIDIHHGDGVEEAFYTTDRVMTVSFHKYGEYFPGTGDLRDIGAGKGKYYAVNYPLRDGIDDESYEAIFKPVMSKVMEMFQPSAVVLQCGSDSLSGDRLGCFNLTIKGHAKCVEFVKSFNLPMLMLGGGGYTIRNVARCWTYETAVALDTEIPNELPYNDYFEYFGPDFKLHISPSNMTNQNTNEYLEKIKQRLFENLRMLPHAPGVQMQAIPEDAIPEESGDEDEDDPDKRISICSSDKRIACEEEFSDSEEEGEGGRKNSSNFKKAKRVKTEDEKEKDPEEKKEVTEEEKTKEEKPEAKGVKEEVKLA
ASSAY_PROCEDURE: Inhibition of human recombinant his tagged HDAC1 expressed in baculovirus expression system using FLUOR DE LYS-SIRT1 as fluorogenic substrate preincubated for 10 mins followed by substrate addition and measured after 1 hr by spectrophotometer based analysis
pIC50: −log10 of the molar value.
REPORTED_ENDPOINT: pIC50

| GIVEN_SMILES | STUDY_TARGET | REPORTED_ENDPOINT | NUMBER |
| --- | --- | --- | --- |
| CCC(=O)CCCCC[C@H](NC(=O)C1CN(C)C1)c1ncc(-c2cc3ccccc3nc2OC)o1 | Histone deacetylase 1 (Homo sapiens, UniProt Q13547) | pIC50 | 8.77 |
| CNC(=O)CCCCC[C@H](NC(=O)CCc1c[nH]c2ccccc12)c1ncc(-c2ccc(-n3cccn3)cc2)[nH]1 | Histone deacetylase 1 (Homo sapiens, UniProt Q13547) | pIC50 | 6.07 |
| CNC(=O)CCCCC[C@H](NC(=O)CCc1c[nH]c2ccccc12)c1ncc(-c2ccc(CN(C)C)cc2)[nH]1 | Histone deacetylase 1 (Homo sapiens, UniProt Q13547) | pIC50 | 5.86 |
| CCC(=O)CCCCC[C@H](NC(=O)Cc1c(C)[nH]c2ccc(OC)cc12)c1ncc(-c2ccc3ccccc3c2)o1 | Histone deacetylase 1 (Homo sapiens, UniProt Q13547) | pIC50 | 7.71 |
| CCC(=O)CCCCC[C@H](NC(=O)Cn1ccnn1)c1ncc(-c2cc3ccccc3nc2OC)o1 | Histone deacetylase 1 (Homo sapiens, UniProt Q13547) | pIC50 | 8.52 |
| CCC(=O)CCCCC[C@H](NC(=O)C(C)(C)N(C)C)c1ncc(-c2cc3ccccc3nc2OC)o1 | Histone deacetylase 1 (Homo sapiens, UniProt Q13547) | pIC50 | 8.46 |
| CCC(=O)CCCCC[C@H](NC(=O)C12CCN(CC1)CC2)c1ncc(-c2cc3ccccc3nc2OC)o1 | Histone deacetylase 1 (Homo sapiens, UniProt Q13547) | pIC50 | 8.80 |
| CCC(=O)CCCCC[C@H](NC(=O)C1CN(C)C1)c1ncc(-c2ccc3ccccc3c2)[nH]1 | Histone deacetylase 1 (Homo sapiens, UniProt Q13547) | pIC50 | 8.82 |

* * *

STUDY_TARGET: UniProt:Q12809
ASSAY_PROCEDURE: Inhibition of hERG potassium channel incubated for 4 hrs by fluorescence polarization assay
Format: toxicity
pIC50: −log10 of the molar value.
Reported pIC50 values are given for each entry in this list.
REPORTED_ENDPOINT: pIC50

| COMPOUND | RESULT_COMPARATOR | NUMBER |
| --- | --- | --- |
| CCC(=O)CCCCC[C@H](NC(=O)C1(F)CN(C)C1)c1ncc(-c2cc3ccccc3nc2OC)o1 | = | 4.87 |
| CCC(=O)CCCCC[C@H](NC(=O)C(=O)N1CCOCC1)c1ncc(-c2cc3ccccc3nc2OC)o1 | < | 4.52 |
| CCC(=O)CCCCC[C@H](NC(=O)C1CNC(=O)C1)c1ncc(-c2cc3ccccc3nc2OC)o1 (stereo partly drawn) | < | 4.52 |
| CCC(=O)CCCCC[C@H](NC(=O)C1CN(C)C1)c1ncc(-c2cc3ccccc3nc2OC)o1 | = | 5.44 |
| CCC(=O)CCCCC[C@H](NC(=O)C1CN(C)C1)c1ncc(-c2cc3ccccc3[nH]c2=O)o1 | < | 4.52 |
| CCC(=O)CCCCC[C@H](NC(=O)C1CN(C)C1)c1ncc(-c2cc3ccccc3nc2OC)[nH]1 | = | 5.52 |
| CCC(=O)CCCCC[C@H](NC(=O)Cn1ccnn1)c1ncc(-c2cc3ccccc3nc2OC)o1 | < | 4.52 |
| CCC(=O)CCCCC[C@H](NC(=O)C12CCN(CC1)CC2)c1ncc(-c2cc3ccccc3nc2OC)o1 | = | 6.72 |

* * *

ASSAY_PROCEDURE: Half life in NMRI mouse plasma at 20 mg/kg, po or 2 mg/kg, iv by LC/MS/MS analysis
Assay type: ADME, organism-based
REPORTED_ENDPOINT: half-life

| GIVEN_SMILES | RESULT |
| --- | --- |
| CCC(=O)CCCCC[C@H](NC(=O)C1CN(C)C1)c1ncc(-c2cc3ccccc3nc2OC)o1 | 3.3 h |

* * *

STUDY_TARGET: Voltage-gated inwardly rectifying potassium channel KCNH2 (Homo sapiens)
Sequence (Q12809 whole entry): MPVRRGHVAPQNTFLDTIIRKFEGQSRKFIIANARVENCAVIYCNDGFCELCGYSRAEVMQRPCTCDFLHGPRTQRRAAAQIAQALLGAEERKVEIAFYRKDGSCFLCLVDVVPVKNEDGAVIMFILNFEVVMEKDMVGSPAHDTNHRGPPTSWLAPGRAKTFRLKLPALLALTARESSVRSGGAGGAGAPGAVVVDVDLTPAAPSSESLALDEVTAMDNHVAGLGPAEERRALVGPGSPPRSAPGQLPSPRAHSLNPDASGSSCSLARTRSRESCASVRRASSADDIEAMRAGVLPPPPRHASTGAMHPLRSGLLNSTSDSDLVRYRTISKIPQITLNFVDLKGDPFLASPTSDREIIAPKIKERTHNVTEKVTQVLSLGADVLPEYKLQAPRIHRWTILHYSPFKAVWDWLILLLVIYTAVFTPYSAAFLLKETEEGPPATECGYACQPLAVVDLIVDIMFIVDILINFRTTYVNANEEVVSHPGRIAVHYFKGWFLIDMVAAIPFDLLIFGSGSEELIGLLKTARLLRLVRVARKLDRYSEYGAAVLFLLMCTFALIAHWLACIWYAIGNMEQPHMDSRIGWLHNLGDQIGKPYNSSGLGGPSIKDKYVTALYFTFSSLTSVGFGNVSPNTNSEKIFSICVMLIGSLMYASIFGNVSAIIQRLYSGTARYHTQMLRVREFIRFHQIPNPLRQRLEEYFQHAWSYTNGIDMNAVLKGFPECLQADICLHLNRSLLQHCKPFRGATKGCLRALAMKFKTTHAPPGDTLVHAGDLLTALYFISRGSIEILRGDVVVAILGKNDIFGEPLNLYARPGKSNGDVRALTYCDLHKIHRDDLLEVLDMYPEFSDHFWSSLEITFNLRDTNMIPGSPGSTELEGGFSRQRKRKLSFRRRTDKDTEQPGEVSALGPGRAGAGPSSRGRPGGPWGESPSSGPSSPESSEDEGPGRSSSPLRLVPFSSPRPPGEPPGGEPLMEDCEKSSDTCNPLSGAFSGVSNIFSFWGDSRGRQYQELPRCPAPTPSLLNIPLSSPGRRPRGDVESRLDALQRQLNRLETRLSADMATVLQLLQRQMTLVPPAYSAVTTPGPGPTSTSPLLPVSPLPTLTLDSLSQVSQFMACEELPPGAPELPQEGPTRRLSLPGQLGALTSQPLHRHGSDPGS
ASSAY_PROCEDURE: Inhibition of hERG by patch clamp assay
Type: toxicity
pIC50: −log10 of the molar value.

| GIVEN_SMILES | STUDY_TARGET | pIC50 |
| --- | --- | --- |
| CCC(=O)CCCCC[C@H](NC(=O)C1CN(C)C1)c1ncc(-c2cc3ccccc3nc2OC)o1 | Voltage-gated inwardly rectifying potassium channel KCNH2 (Homo sapiens) | 5.00 |
